Known HEK-Blue activity, No BP, DF-1,000,000 of a selection of binders
Target: T1, IL-18 receptors on HEK-Blue IL-18 reporter cells (UniProt Q13478 19-541; O95256 20-599, limits assumed); also: unit not given here
T1 sequence (looked up) 1: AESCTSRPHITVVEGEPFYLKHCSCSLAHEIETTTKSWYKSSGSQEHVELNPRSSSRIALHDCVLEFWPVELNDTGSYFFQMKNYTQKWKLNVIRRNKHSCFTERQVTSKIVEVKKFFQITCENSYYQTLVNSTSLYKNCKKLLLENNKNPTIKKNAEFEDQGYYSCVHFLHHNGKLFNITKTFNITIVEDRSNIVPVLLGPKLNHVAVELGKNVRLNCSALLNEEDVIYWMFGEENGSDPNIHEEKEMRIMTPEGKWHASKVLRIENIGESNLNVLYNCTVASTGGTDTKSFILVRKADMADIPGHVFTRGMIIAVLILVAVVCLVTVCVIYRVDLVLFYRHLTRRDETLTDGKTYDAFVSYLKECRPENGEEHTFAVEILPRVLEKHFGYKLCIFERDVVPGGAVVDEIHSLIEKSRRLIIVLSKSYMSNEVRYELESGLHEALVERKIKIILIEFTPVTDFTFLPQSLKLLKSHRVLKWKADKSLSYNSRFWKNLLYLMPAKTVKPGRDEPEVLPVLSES
T1 sequence (looked up) 2: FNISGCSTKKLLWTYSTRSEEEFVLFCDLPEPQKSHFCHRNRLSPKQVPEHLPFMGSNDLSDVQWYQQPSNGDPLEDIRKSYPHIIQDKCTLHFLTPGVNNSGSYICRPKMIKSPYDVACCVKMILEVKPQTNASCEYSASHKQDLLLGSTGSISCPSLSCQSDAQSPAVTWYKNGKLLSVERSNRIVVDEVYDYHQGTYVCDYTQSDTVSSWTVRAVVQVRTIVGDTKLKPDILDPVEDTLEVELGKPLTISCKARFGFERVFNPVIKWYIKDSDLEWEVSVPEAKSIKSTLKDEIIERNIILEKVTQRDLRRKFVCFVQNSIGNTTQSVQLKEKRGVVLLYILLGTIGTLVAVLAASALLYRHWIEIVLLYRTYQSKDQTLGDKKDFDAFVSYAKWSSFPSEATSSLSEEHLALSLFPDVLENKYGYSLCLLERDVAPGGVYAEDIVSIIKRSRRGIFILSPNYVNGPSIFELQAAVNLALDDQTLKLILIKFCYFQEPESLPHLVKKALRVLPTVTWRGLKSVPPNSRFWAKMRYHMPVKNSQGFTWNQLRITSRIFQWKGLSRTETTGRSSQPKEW
Test: cell-based or functional assay
PROPERTY_LABEL: HEK-Blue activity, No BP, DF-1,000,000

>  <BINDER>
yeast display IL-18 variant K53S, S55Y (ligand) YFGKLESKLSVIRNLNDQVLFIDQGNRPLFEDMTDSDMRDNAPRTIFIISMYSDYQPRGMAVTISVKSEKISTLSSENKIISFKEMNPPDNIKDTKSDIIFFQRSVPGHDNKMQFESSSYEGYFLASEKERDLFKLILKKEDELGDRSIMFTVQNED

>  <REPORTED_VALUE>
0.19

$$$$
>  <BINDER>
yeast display IL-18 variant S36E, D37E, D40K, N41T, K53T, S55Q, R104H (ligand) YFGKLESKLSVIRNLNDQVLFIDQGNRPLFEDMTDEEMRKTAPRTIFIISMYTDQQPRGMAVTISVKSEKISTLSSENKIISFKEMNPPDNIKDTKSDIIFFQHSVPGHDNKMQFESSSYEGYFLASEKERDLFKLILKKEDELGDRSIMFTVQNED

>  <REPORTED_VALUE>
0.17

$$$$
>  <BINDER>
yeast display IL-18 variant K53T, S55F (ligand) YFGKLESKLSVIRNLNDQVLFIDQGNRPLFEDMTDSDMRDNAPRTIFIISMYTDFQPRGMAVTISVKSEKISTLSSENKIISFKEMNPPDNIKDTKSDIIFFQRSVPGHDNKMQFESSSYEGYFLASEKERDLFKLILKKEDELGDRSIMFTVQNED

>  <REPORTED_VALUE>
0.16

$$$$
>  <BINDER>
yeast display IL-18 variant L5W, S7Y, K53H, S55M (ligand) YFGKWEYKLSVIRNLNDQVLFIDQGNRPLFEDMTDSDMRDNAPRTIFIISMYHDMQPRGMAVTISVKSEKISTLSSENKIISFKEMNPPDNIKDTKSDIIFFQRSVPGHDNKMQFESSSYEGYFLASEKERDLFKLILKKEDELGDRSIMFTVQNED

>  <REPORTED_VALUE>
0.16

$$$$
>  <BINDER>
yeast display IL-18 variant K53N, S55M, R104S, P107A (ligand) YFGKLESKLSVIRNLNDQVLFIDQGNRPLFEDMTDSDMRDNAPRTIFIISMYNDMQPRGMAVTISVKSEKISTLSSENKIISFKEMNPPDNIKDTKSDIIFFQSSVAGHDNKMQFESSSYEGYFLASEKERDLFKLILKKEDELGDRSIMFTVQNED

>  <REPORTED_VALUE>
0.12

$$$$
>  <BINDER>
yeast display IL-18 variant K53G, S55V (ligand) YFGKLESKLSVIRNLNDQVLFIDQGNRPLFEDMTDSDMRDNAPRTIFIISMYGDVQPRGMAVTISVKSEKISTLSSENKIISFKEMNPPDNIKDTKSDIIFFQRSVPGHDNKMQFESSSYEGYFLASEKERDLFKLILKKEDELGDRSIMFTVQNED

>  <REPORTED_VALUE>
0.1

$$$$
>  <BINDER>
yeast display IL-18 variant K53G, S55I (ligand) YFGKLESKLSVIRNLNDQVLFIDQGNRPLFEDMTDSDMRDNAPRTIFIISMYGDIQPRGMAVTISVKSEKISTLSSENKIISFKEMNPPDNIKDTKSDIIFFQRSVPGHDNKMQFESSSYEGYFLASEKERDLFKLILKKEDELGDRSIMFTVQNED

>  <REPORTED_VALUE>
0.09

$$$$
